The measurements presented in this section are drawn from PubChem BioAssay AID624323.

Tested on: aqueous buffer solubility, pH 5.0/6.2/7.4
PROCEDURE_TEXT: compound solubility, pH 5.0, 6.2, 7.4 – biophysical, set 2, ADME assay (AID 624323)
COND: measured here: solubility at pH 5.0; at 100 µM; stronger effect = higher value
Readings of solubility for the listed compounds

These solved cases illustrate the format of a correct answer.
Cc1cc(-c2nnc3n2CCCCC3)c(C)n1-c1ccccc1
> 30 µg/mL
Oc1cc(O)cc(/C=C/c2ccc(O)c(O)c2)c1
> 24 µg/mL
CC[C@H]1CN2CCc3cc(OC)c(OC)cc3[C@@H]2C[C@@H]1C[C@H]1NCCc2cc(OC)c(OC)cc21
> 55 µg/mL
CCCN1CNc2c(c(=O)[nH]c(=S)n2CCc2ccc(OC)c(OC)c2)C1
> 39 µg/mL
Brc1ccc2c(c1)CN1CCCC1=N2
> 25 µg/mL

For the compound `Cc1ccc(C(=O)n2c3ccccc3c3ccccc32)cc1` , what solubility is on record? < 0.01 µg/mL

And for `O=C(O)c1cccnc1SCCc1ccccc1` ? > 26 µg/mL

Do the same for `Cn1cnc([N+](=O)[O-])c1Sc1ncnc2nc[nH]c12` please > 27 µg/mL

What do you have for `CCCC(=O)Nc1cccc(NC(=O)c2ccccc2Br)c1` ? > 36 µg/mL

Next entry: COc1ccc(C2c3c(ncn(CCN4CCOCC4)c3=N)Oc3ccc4ccccc4c32)cc1OC (stereo not given) > 49 µg/mL

---

Tested on: aqueous buffer solubility, pH 5.0/6.2/7.4
PROCEDURE_TEXT: compound solubility, pH 5.0, 6.2, 7.4 – biophysical, set 2, ADME assay (AID 624323)
COND: measured here: solubility at pH 6.2; at 100 µM; stronger effect = higher value
ATTRIBUTE_MEASURED: solubility (µg/mL)
Record the value in µg/mL, omitting the unit from your answer.

Some solved entries appear below for comparison.
O=c1[nH]c2c(s1)C(c1cccnc1)C1C3CCC(C3)C1S2 (stereo not given)
21.8
CSc1nc(-c2ccc(C)cc2)nc(C(Cl)Cl)n1
0.01
CS(=O)(=O)c1ccc(C(=O)OCC(=O)NC23CC4CC(CC(C4)C2)C3)cc1[N+](=O)[O-]
2.5

Kindly consider the entry below.
Sample `Cc1cc(C(=O)CN2C(=O)CCC2=O)c(C)n1Cc1ccccc1` — what was its solubility? 22.6

---

// values below are reported solubility
Tested on: aqueous buffer solubility, pH 5.0/6.2/7.4
PROCEDURE_TEXT: compound solubility, pH 5.0, 6.2, 7.4 – biophysical, set 2, ADME assay (AID 624323)
COND: measured here: solubility at pH 5.0; at 100 µM; stronger effect = higher value

O=C(COc1ccccc1Br)NCCc1nc2ccccc2[nH]1
> 37 µg/mL
CCN1CCN(c2nc3ccccc3nc2C(C#N)C(=O)OC2CCCCC2)CC1 (stereo not drawn)
> 40 µg/mL

Please find the next molecule below.
Find the recorded solubility belonging to `Cc1ccc(S(=O)(=O)NCc2ccc(C(=O)NCCN(Cc3ccccc3)C(C)C)cc2)cc1` and report it. > 47 µg/mL

---

solubility overview
Test system: aqueous buffer solubility, pH 5.0/6.2/7.4
PROCEDURE_TEXT: compound solubility, pH 5.0, 6.2, 7.4 – biophysical, set 2, ADME assay (AID 624323)
COND: measured here: solubility at pH 5.0; at 100 µM; stronger effect = higher value

Worked examples, 2 compounds total:
CC1CCCN(C(C(=O)Nc2ccc3c(c2)OCCO3)c2ccccc2)C1 (stereo not drawn)
> 36 µg/mL
CCCN(CCC)CCNC(=O)C1CCN(Cc2nc(-c3ccc(Cl)cc3)oc2C)CC1
> 46 µg/mL

Now consider the entry below.
Hi! What's the reported solubility for `c1ccc(CC2CCN(c3ncnc4sccc34)CC2)cc1` on aqueous buffer solubility, pH 5.0/6.2/7.4? < 0.01 µg/mL

---

Tested on: aqueous buffer solubility, pH 5.0/6.2/7.4
PROCEDURE_TEXT: compound solubility, pH 5.0, 6.2, 7.4 – biophysical, set 2, ADME assay (AID 624323)
COND: measured here: solubility at pH 6.2; at 100 µM; stronger effect = higher value
Overview of reported solubility across a group of compounds:

Previously resolved entries follow.
COc1ccc(Sc2ccc(NC(=O)c3ccccc3Cl)cc2C#N)cc1
< 0.01 µg/mL
CCCn1ncc(CN2CCCC(C(=O)c3cccc(OC(C)C)c3)C2)c1C (configuration not stated)
> 38 µg/mL
Cc1ccc(C)c(NS(=O)(=O)c2cc(C(=O)Nc3ccccc3-c3ccccc3)ccc2Cl)c1
< 0.1 µg/mL
COc1ccc(S(=O)(=O)N2CCN(S(=O)(=O)c3ccc4c(c3)OCCO4)CC2)cc1
< 0.1 µg/mL
CCCOc1ccc(-c2nc(OC)c3ccccc3n2)cc1
< 0.01 µg/mL

I'd like to know its solubility. The compound in question is `O=C(COc1ccccc1Br)NCCc1nc2ccccc2[nH]1` > 37 µg/mL

Entry `Brc1ccc2c(c1)CN1CCCC1=N2` please > 25 µg/mL

---

Test system: aqueous buffer solubility, pH 5.0/6.2/7.4
PROCEDURE_TEXT: compound solubility, pH 5.0, 6.2, 7.4 – biophysical, set 2, ADME assay (AID 624323)
COND: at 100 µM
Calls of active or inactive are those of the source. How the calls were made is not given here.
Please state which outcome applies, choosing from active, inactive

Example entries begin here.
O=C1CCCC2=C1C1(CCCC1)N=C(Nc1nc3ccccc3o1)N2
inactive
Cc1ccc(C)c(NS(=O)(=O)c2cc(C(=O)Nc3ccccc3-c3ccccc3)ccc2Cl)c1
inactive
CC(C)(C)OC(=O)NCCc1nnc(S(=O)(=O)Cc2ccc(Cl)cc2Cl)o1
inactive
COc1ccc(CSc2nc(C)cc(=O)[nH]2)cc1
active
CCN1CCN(c2nc3ccccc3nc2C(C#N)C(=O)OC2CCCCC2)CC1 (stereo not given)
active

Please let me know the test result on file for `CCOc1ccc(NC(=S)N2CCC(C(O)(c3ccccc3)c3ccccc3)CC2)cc1` . inactive

# repeat for CC1CCCN(C(C(=O)Nc2ccc3c(c2)OCCO3)c2ccccc2)C1 (stereo not given) inactive

Similarly, `O=c1[nH]c(SCc2ccc(Cl)cc2)nc2c1CCC2` ? inactive

Note, next up: `CN(C)c1nc(N)nc(CSc2nnnn2-c2cccc3ccccc23)n1` inactive

Also need `c1ccc2c(Nc3nnc(-c4ccncc4)s3)cccc2c1` , thanks. inactive

Next: `O=C(CSc1cccc2cccnc12)N1CCCC1` active

Thanks! And `O=C(COC(=O)C12CC3CC(CC(C3)C1)C2)NCc1ccco1` ? inactive

Then this compound: `O=C1NCCCc2c1oc1ccc(O)cc21` active

Entry to check: `CCc1oc2ccccc2c1C(=O)c1cc(Br)c(O)c(Br)c1` active

---

Tested on: aqueous buffer solubility, pH 5.0/6.2/7.4
PROCEDURE_TEXT: compound solubility, pH 5.0, 6.2, 7.4 – biophysical, set 2, ADME assay (AID 624323)
COND: measured here: solubility at pH 5.0; at 100 µM; stronger effect = higher value
ATTRIBUTE_MEASURED: solubility

These solved cases illustrate the format of a correct answer.
O=[N+]([O-])c1ccc(CN2CCOCCOCCN(Cc3ccc([N+](=O)[O-])cc3)CCOCC2)cc1
> 48 µg/mL
COc1cc(NC(=O)c2cc(C3CC3)on2)c(OC)cc1Cl
< 0.01 µg/mL

Let us move to another entry and its solubility.
Bench note: what solubility did `COc1ccc(CSc2nc(C)cc(=O)[nH]2)cc1` show? > 26 µg/mL

---

Test system: aqueous buffer solubility, pH 5.0/6.2/7.4
PROCEDURE_TEXT: compound solubility, pH 5.0, 6.2, 7.4 – biophysical, set 2, ADME assay (AID 624323)
COND: at 100 µM; stronger effect = higher value
Active and inactive are the calls of the source. The rule behind the calls is not given here.
Here, each record is paired with measured solubility data.

CCCC(=O)Nc1cccc(NC(=O)c2ccccc2Br)c1
> 36 µg/mL
COc1ccc(OC)c(S(=O)(=O)Nc2cnc3ccccc3c2)c1
25.8 µg/mL
CCCN1CNc2c(c(=O)[nH]c(=S)n2CCc2ccc(OC)c(OC)c2)C1
> 39 µg/mL

Fill in the blank: the reported solubility of `Cc1ccccc1N1CCN(c2ncnc3c2cnn3Cc2ccc(Cl)cc2)CC1` is ____. < 0.01 µg/mL (inactive)

Proceed to `CSc1nc(-c2ccc(C)cc2)nc(C(Cl)Cl)n1` 0.01 µg/mL (inactive)

// next record `Cc1ccc(N2CCN(S(=O)(=O)N3CCCCC3)CC2)c(C)c1` 1.6 µg/mL (inactive)
